Origin of measurements: patent US20220041613A1

biological target: HER2 WT (Homo sapiens); construct: endogenous in cells; host or cells: BT474; experiment: Assay for cell proliferation (CellTiterGlo), Activity for Inhibiting HER2; format: cell-based; conditions: 'about ... or less'; read-out: IC50 value for inhibiting wild-type HER2
Sequence (P04626 23-1255): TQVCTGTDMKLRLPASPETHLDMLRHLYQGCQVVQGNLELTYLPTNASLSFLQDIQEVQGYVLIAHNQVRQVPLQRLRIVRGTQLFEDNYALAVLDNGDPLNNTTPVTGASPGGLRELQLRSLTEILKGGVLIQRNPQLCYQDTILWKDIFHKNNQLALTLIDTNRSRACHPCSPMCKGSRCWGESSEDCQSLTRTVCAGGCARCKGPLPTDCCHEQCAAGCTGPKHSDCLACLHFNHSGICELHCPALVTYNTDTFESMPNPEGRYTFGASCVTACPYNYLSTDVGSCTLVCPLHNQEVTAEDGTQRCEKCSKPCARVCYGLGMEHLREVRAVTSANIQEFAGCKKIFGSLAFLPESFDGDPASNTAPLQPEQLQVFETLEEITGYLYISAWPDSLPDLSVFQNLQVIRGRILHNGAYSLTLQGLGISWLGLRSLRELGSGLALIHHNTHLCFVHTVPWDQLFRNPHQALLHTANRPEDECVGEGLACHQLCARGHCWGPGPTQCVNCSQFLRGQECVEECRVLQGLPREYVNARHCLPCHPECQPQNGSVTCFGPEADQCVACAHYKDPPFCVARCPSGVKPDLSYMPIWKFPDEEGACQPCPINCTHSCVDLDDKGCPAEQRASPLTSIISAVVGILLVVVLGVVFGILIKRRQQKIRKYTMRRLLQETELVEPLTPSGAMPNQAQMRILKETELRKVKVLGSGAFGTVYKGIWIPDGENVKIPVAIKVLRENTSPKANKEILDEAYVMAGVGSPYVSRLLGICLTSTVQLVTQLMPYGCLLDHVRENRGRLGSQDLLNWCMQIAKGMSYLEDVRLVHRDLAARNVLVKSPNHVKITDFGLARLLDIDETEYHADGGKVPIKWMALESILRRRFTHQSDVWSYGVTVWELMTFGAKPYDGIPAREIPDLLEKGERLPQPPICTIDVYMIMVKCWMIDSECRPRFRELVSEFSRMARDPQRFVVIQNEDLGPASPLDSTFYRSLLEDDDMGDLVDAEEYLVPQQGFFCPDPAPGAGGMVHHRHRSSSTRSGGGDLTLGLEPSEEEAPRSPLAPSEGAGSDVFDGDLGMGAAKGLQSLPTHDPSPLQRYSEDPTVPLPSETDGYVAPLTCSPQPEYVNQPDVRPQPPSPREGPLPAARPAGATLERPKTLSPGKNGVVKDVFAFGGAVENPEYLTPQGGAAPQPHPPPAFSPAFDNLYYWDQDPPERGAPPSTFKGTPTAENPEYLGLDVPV
Some compounds, each annotated with its measured IC50.

COMPOUND	EXPERIMENTAL ENDPOINT	RESULT
C=CC(=O)Nc1cc2c(Nc3ccc4c(cnn4Cc4cccc(F)c4)c3)ncnc2cc1OCCN1CCOCC1 [compound 3]	IC50	≤ 6 nM
C=CC(=O)Nc1cc2c(Nc3ccc4c(cnn4Cc4cccc(F)c4)c3)ncnc2cc1N(C)CCCN1CCOCC1 [compound 4]	IC50	≤ 20 nM

Reported IC50 for C=CC(=O)Nc1cc2c(Nc3ccc4c(cnn4Cc4cccc(F)c4)c3)ncnc2cc1OCCCN1CC2CC1CO2 (stereo not drawn) [compound 6] was ≤ 6 nM
